# Target System: Aryl hydrocarbon receptor (Homo sapiens) (UniProt P35869)
# Sequence (P35869 whole entry, looked up): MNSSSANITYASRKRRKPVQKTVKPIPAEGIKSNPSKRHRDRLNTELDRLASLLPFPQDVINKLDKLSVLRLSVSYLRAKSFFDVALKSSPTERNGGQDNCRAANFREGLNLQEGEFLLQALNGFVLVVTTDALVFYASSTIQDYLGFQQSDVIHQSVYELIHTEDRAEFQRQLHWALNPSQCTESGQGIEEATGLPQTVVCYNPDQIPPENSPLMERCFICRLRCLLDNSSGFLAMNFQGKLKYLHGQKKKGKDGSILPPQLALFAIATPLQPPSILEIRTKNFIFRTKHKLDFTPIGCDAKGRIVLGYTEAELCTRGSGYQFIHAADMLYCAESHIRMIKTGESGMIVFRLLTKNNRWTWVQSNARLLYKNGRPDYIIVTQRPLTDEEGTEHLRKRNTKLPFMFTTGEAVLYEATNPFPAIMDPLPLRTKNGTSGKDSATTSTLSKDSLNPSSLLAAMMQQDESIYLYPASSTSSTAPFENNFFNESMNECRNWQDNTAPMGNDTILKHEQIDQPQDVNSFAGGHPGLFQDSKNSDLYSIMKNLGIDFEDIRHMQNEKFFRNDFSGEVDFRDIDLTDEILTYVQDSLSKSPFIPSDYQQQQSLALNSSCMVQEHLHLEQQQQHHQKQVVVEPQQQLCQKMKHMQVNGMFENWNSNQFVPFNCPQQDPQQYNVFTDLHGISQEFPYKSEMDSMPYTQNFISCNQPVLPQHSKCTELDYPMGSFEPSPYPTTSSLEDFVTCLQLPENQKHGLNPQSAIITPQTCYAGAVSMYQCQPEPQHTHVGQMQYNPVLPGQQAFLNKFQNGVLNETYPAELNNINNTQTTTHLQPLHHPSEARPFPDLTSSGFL
# Protocol Details: AHR activators, primary screen, cell-based, luminescence, luciferase reporter, human (AID 2796);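 also: 0% = vehicle wells and 100% = reference agonist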
# Particulars: AHR-responsive luciferase reporter cells, at 5 µM, active compounds read high
Out of some 320,000 compounds screened, about 8,000 (2.5%) were called active. For the sample, actives were picked, then their nearest neighbours and some compounds at random.
Attribute: activation
Observed Property: activation (%)

# Compound, Observed Property, Numeric Readout
records = [
    ("Nc1nonc1-c1noc(-c2ccc(Br)o2)n1", "activation", 14.2),
    ("C[C@H](CO)N1C[C@H](C)[C@H](CN(C)C(=O)Nc2ccc(C(F)(F)F)cc2)Oc2c(NC(=O)c3ccncc3)cccc2C1=O", "activation", 5.42),
    ("CCNC(=O)N(CC)C[C@H]1N[C@@](CC)(C(=O)OC)[C@H]2C(=O)N(Cc3ccccc3)C(=O)[C@@H]12", "activation", -0.15),
    ("COc1cc(C(=O)NCc2nnc(SCC(=O)Nc3nc4ccc(C)cc4s3)o2)cc(OC)c1OC", "activation", -5.66),
    ("CCOc1cc2[nH]c(=S)n(CCN3CCCCC3C)c(=O)c2cc1OCC (stereo not given)", "activation", 7.8),
    ("COc1ccc(N(CC(=O)NCc2ccc(F)cc2)C(=O)CCC(=O)Nc2nccs2)cc1", "activation", 0.66),
    ("FC(F)(F)C1CCCN(c2nsc3ccccc23)C1 (stereo not given)", "activation", 16.6),
    ("CC(=O)Nc1ccc(NC(=O)CCCNC(=O)c2ccc(Cl)cc2)cc1", "activation", 1.47),
    ("Cc1noc(C)c1S(=O)(=O)N(C)C[C@H]1Oc2ccc(NC(=O)C3CCCCC3)cc2C(=O)N([C@H](C)CO)C[C@@H]1C", "activation", -1.72),
    ("Cn1nc(-c2ccccc2)c(-c2nc(-c3ccc(Cl)cc3)no2)c1Cl", "activation", -1.35),
]
